STUDY CONDITIONS: 338.15 K; 101 kPa; Liquid; Sing-around technique in a fixed-path interferometer
REPORTED ENDPOINT: speed of sound (m/s)

[
  {
    "MOL SMILES": "CCO",
    "UNIT NAME": "m/s",
    "NUMERIC READOUT": 1009.4
  },
  {
    "MOL SMILES": "CCn1cc[n+](C)c1.O=S(=O)([N-]S(=O)(=O)C(F)(F)F)C(F)(F)F",
    "UNIT NAME": "m/s",
    "NUMERIC READOUT": 1155.8
  },
  {
    "MOL SMILES": "CCCC[n+]1ccn(C)c1.O=S(=O)([N-]S(=O)(=O)C(F)(F)F)C(F)(F)F",
    "UNIT NAME": "m/s",
    "NUMERIC READOUT": 1142.7
  },
  {
    "MOL SMILES": "CCCCCC[n+]1ccn(C)c1.O=S(=O)([N-]S(=O)(=O)C(F)(F)F)C(F)(F)F",
    "UNIT NAME": "m/s",
    "NUMERIC READOUT": 1139.3
  }
]
